- test-target: TLR7 (Mus musculus, UniProt P58681)
- Construct: endogenous in cells
- Sequence (P58681 27-1050): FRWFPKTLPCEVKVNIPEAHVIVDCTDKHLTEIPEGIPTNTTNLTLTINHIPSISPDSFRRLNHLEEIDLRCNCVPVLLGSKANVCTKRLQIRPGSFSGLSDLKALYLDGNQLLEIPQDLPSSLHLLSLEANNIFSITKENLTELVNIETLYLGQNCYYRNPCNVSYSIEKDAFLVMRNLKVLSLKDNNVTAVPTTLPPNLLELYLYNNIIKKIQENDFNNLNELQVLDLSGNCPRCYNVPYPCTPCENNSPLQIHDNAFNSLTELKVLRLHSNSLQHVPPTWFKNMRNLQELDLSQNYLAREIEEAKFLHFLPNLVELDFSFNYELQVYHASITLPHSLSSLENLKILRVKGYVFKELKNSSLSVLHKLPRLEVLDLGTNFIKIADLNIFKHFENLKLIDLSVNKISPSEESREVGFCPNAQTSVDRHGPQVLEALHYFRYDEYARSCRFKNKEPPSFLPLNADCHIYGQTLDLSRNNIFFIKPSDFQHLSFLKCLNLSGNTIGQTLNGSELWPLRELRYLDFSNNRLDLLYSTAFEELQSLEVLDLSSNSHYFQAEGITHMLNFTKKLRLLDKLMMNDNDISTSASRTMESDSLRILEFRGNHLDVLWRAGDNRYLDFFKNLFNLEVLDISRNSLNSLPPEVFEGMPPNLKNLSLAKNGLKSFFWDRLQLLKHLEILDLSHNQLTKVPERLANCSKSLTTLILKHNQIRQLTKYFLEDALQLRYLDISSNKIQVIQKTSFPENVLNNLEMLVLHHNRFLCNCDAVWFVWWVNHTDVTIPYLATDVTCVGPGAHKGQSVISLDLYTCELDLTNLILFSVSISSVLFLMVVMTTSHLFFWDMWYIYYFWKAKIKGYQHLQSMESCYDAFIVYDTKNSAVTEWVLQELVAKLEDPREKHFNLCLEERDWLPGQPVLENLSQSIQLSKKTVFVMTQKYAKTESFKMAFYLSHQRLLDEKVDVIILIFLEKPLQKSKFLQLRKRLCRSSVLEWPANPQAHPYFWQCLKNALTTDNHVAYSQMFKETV
- protocol-summary: In vitro TLR7 small molecule screening: murine TNFα production by bone marrow-derived murine macrophages
- protocol-conditions: murine TNFα by ELISA after overnight culture; 1000 to 0.06 nM; non-linear regression
recorded-metric: EC50 (nM)

>>> observed("CCOCc1nc2c(NC(=O)[C@H](C)NC(=O)C3CCCN3C(=O)OC(C)(C)C)nc3ccccc3c2n1CC(C)(C)OCCNC(=O)C(C)(C)NC(=O)OCc1ccccc1 (stereo partly drawn)")
503

[P] CCOCc1nc2c(NC(=O)[C@H](C)N)nc3ccccc3c2n1CC(C)(C)OCCNC(=O)C(C)(C)NC(=O)OCc1ccccc1
[Q] CCOCc1nc2c(NC(=O)[C@H](CCCNC(N)=O)NC(=O)[C@@H](N)C(C)C)nc3ccccc3c2n1CC(C)(C)OCCNC(=O)OC(C)(C)C
QUERY: Name the one with the greater EC50 value, either P or Q as given. Bench note: the answer is the label of the chosen record.
RESULT: P
(P: 657 nM, Q: 4 nM)

----------
- test-target: TLR7 (Mus musculus)
- Construct: endogenous in cells
- protocol-summary: In vitro TLR7 small molecule screening: murine TNFα production by bone marrow-derived murine macrophages
- protocol-conditions: murine TNFα by ELISA after overnight culture; 1000 to 0.06 nM; non-linear regression
recorded-metric: EC50 (µM)

>>> observed("CCOCc1nc2c(N)nc3ccccc3c2n1CC(C)(C)OCCN [Compound A, reference compound]")
0.073

[I] CCOCc1nc2c(N)nc3ccccc3c2n1CC(C)(C)OCCNC(=O)OC(C)(C)C [Compound 1.4]
[II] CCOCc1nc2c(NC(=O)[C@H](CCCNC(N)=O)NC(=O)[C@@H](NC(=O)OCC3c4ccccc4-c4ccccc43)C(C)C)nc3ccccc3c2n1CC(C)(C)OCCNC(=O)OC(C)(C)C [Compound 1.8]
[III] CCOCc1nc2c(NC(=O)[C@H](C)NC(=O)OC(C)(C)C)nc3ccccc3c2n1CC(C)(C)OCCNC(=O)C(C)(C)NC(=O)OCc1ccccc1 [Compound 1.3]
[IV] CCOCc1nc2c(N)nc3ccccc3c2n1CC(C)(C)OCCNC(=O)C(C)(C)NC(=O)OCc1ccccc1 [Compound 1.1]
QUERY: Please order the records by their reported EC50, lowest number first. // format: requested-order list of labels
RESULT: I, IV, II, III
(I: 0.0012 µM, IV: 0.02 µM, II: 0.059 µM, III: 1.68 µM)
